Tested on: K4 kissing-loop RNA reporter;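 note: bound reporter read as fluorescence of individual clusters on recovered sequencing chips by microscopy, with normalized cluster intensities fitted with a binding model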
ASSAY_COMMENT: apparent KD of K4 kissing-loop reporter; higher = weaker reporter binding
ASSAY_CONTEXT: Eterna round: R107; input ligand: arginine 13.2 mM
Field: apparent KD of K4 kissing-loop reporter. Provide a value for each of the sequences that follow.
A number alone suffices; assume nM.

Lookup: Give apparent KD of K4 kissing-loop reporter for GAGCCAACCGUCGAUACCAGCCGCACGUCAUUCACUCAAUGCUGAGGAGCCAGUGAUGUUGGCCCUUGGCAGCGAAGCAACGAUC [theeternabot_exclusion_KL_Theo_B_43]
Found: 91.8

Lookup: Give apparent KD of K4 kissing-loop reporter for AAAUUCUUUUUUUUAUAUAACGAUUCAGAAGGAGCGAGGUAGAACUCAGGUAGGUCGCUGAAUAUAAGACUAGUGAUGUUAGUAA [#01 K4 Arginine A Same State]
Found: 193

Lookup: Give apparent KD of K4 kissing-loop reporter for UAUGUACACUGGUAGUGGUACAUCGAGGAAGGAGCGUGCGCAGGCACAGGUAGGUCGCCUCAGCGCACGAGUGAUGUUCGUGGGC [Ceaqu]
Found: 205

Lookup: Give apparent KD of K4 kissing-loop reporter for UUUUAUAACCGAAGGAGCGCGUGGGCGCAGUGAUGUUGCGCCCGACAUCACUUCAACUUAACGCAGGUAGGUCGCGGUUUUAAUA [Arginine B (Excl) V2]
Found: 132

Lookup: Give apparent KD of K4 kissing-loop reporter for CUUCUCCUUCCAAUCUCGGCCAACACGGGACGAGGACCGGUACGGCCGCCACUCGUGCAGUGAUGUUGCACGAUGGUGACGGAGA [Queronmaan]
Found: 87.6

Lookup: Give apparent KD of K4 kissing-loop reporter for GGGUCUGUCGGAAGGAGCGCACUAUGGAGUGAUGUUCCAUGACCGCACAGCUUGCGGUCAGUGCAGGUAGGUCGCCGAUAGCUUU [Usquso]
Found: 169

Lookup: Give apparent KD of K4 kissing-loop reporter for GCCUUUGUACAGUCCGUUUGUCAUGUGGAUACCAGCAGGAUAGCUUGCCCUUGGCAGCCAUCCAUUUAAUGUAGUGAUGUUACGC [theeternabot_exclusion_KL_Theo_A_13]
Found: 440

Lookup: Give apparent KD of K4 kissing-loop reporter for GUAUCGCUAGGAGGAUAUUUCAAAUAAUAAAUAAAUGGAUAUACGGAGUGAUGUUCCGAUUUACGGAAAGAAGGCCUAGUGAUAC [FMN B 1]
Found: 179

Lookup: Give apparent KD of K4 kissing-loop reporter for GCAAAACUCAGUGAUGUUGAGAUAUCGGAAGGAGCGCGUGAAAACGCAGGUAGGUCGCCGAUUCAAUGAGUUUCUCGUUGUUUGC [Arginine A K4 20]
Found: 305

Lookup: Give apparent KD of K4 kissing-loop reporter for UUAGGAGUGGGAGGAUAUCCUAAUGUGGGUGAUGUUAGCGAUGUUGAAAGUGUAGUGAUGUUGUGCGGAGAAGGUCCAGUGUUGA [BDazzled - #12 - Exc. FMN B]
Found: 141

Lookup: Give apparent KD of K4 kissing-loop reporter for AUGCAUCAGACUUGAUACGGUGAAAUAGCCCGAGGACCGGUACGGCCGCCACUCGGUCCAGUGAUGUUGGAUAAUUAAUCUAGGU [theeternabot_sameState_KL_Trp_A_34]
Found: 256

Lookup: Give apparent KD of K4 kissing-loop reporter for AACUCUCAGACAUCUGAGUGAUGUUCAGGCCGAGGACCGGUACGGCCGCCACUCGGGUCUGAGAGAGGUUAUCAAAGAUAGCCAA [Omei KL Tryp A SS A v4]
Found: 356

From: the supplement of paper PMC9170038
